This collection of values is drawn from PubChem BioAssay AID588579.

- assayed-target: DNA polymerase kappa (Homo sapiens) (UniProt Q9UBT6)
- Sequence (Q9UBT6 whole entry, looked up): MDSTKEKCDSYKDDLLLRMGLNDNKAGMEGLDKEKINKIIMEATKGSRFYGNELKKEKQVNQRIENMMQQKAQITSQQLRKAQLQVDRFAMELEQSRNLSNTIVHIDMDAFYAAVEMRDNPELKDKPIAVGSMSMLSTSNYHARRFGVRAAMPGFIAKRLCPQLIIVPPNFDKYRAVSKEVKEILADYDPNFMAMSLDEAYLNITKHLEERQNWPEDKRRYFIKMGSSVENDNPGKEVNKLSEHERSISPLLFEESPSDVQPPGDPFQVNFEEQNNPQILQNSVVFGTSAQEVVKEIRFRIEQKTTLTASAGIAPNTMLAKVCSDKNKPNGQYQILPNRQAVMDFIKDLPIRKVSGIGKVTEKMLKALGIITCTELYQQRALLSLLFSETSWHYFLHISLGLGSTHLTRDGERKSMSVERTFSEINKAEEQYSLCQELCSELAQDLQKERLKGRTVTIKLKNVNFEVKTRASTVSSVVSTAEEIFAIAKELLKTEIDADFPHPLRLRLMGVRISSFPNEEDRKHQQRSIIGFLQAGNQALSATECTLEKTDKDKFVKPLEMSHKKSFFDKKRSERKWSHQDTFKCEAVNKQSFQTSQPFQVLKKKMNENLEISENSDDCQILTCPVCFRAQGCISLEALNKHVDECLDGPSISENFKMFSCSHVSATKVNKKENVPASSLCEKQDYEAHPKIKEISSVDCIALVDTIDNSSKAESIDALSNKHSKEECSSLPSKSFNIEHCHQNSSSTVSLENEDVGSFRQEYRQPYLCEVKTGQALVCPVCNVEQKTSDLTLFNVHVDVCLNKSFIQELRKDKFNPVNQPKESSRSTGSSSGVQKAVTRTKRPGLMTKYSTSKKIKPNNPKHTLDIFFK
- test-description: qHTS for Inhibitors of Polymerase Kappa; further: potency means the concentration at half of the fitted maximal effect
- experimental-conditions: purified Pol kappa, fluorescent DNA synthesis assay, 10 min; series mostly up to 60.1 µM
Among all 400,000 compounds or so, about 2,200 (0.55%) were called active. Inconclusive results (about 1%) are left out. The entries come from a sample that favours actives as a whole.
attribute-measured: Potency

Sample records with Potency:
# compound, value-observed
records = [
    ("CC[C@@H]1CN2CC[C@@H]1C[C@H]2[C@H](O)c1ccnc2ccc(OC)cc12", "inactive"),
    ("CC(CCC(=O)O)C1CCC2C3C(O)C[C@@H]4CC(O)CC[C@@]4(C)C3CC[C@@]12C (stereo not given in full)", "inactive"),
    ("CN(C)[C@@H]1C(=O)C(C(N)=O)=C(O)[C@@]2(O)C(=O)C3=C(O)c4c(O)cccc4[C@@](C)(O)C3CC12 (stereo not given in full)", "inactive"),
    ("N[C@H](C(=O)O)c1cc(=O)[nH]o1", "inactive"),
    ("O=C1CC(=O)N(Cc2ccccc2)C(=O)N1CCCCCCN1C(=O)CC(=O)N(Cc2ccccc2)C1=O", "22.4 µM (active)"),
]

Kindly review the next compound as well.
Exercise: For the compound O=C1NC(=O)N(c2ccccc2)C(=O)/C1=C/c1ccc([N+](=O)[O-])s1 , give its reported Potency.
Solution: 31.6 µM (active)
